system: Low-density lipoprotein receptor (Homo sapiens) (UniProt P01130)
Sequence (P01130 whole entry): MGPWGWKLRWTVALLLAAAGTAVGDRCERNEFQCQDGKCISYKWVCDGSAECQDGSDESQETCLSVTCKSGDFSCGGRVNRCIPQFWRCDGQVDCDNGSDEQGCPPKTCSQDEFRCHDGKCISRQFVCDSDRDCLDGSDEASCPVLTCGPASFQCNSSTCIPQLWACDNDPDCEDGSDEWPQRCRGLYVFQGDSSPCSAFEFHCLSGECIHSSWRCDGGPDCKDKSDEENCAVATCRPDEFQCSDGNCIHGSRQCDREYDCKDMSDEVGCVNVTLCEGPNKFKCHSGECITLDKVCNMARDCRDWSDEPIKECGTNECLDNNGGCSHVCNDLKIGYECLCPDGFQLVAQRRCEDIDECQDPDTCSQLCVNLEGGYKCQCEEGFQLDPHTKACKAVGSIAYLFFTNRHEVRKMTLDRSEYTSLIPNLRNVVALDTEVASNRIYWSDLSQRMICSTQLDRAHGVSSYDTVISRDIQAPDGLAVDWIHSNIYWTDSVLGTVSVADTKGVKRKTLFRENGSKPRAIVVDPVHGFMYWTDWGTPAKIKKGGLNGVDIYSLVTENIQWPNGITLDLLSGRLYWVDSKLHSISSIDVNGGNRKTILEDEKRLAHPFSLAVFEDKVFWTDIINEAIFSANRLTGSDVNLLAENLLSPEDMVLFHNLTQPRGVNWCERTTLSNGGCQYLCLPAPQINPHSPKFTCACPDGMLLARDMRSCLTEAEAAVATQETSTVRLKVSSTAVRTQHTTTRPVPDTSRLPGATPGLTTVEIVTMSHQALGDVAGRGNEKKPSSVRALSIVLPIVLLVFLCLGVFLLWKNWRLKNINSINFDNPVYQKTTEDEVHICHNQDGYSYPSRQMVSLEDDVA
experimental_details: Capability of derepressing the transcription of human Low density lipoprotein receptor promoter in the presence of 25-hydroxycholesterol in CHO cells by luciferase assay
Type: cell-based
Class definitions on EC30: small value: < 3 µM; mid value: ≥ 3 µM and < 10 µM; large value: ≥ 10 µM

{"columns": ["compound", "category_label"],
 "data": [
  ["COC(=O)c1ccc(C[C@H]2C3CC[C@H]4[C@@H]5CC[C@H]([C@H](C)CCCC(C)C)[C@@]5(C)CC[C@@H]4[C@@]3(C)CC[C@H]2O)cc1 (stereo partly specified)", "large value"],
  ["C=C(Cl)C[C@H]1C2CC[C@H]3[C@@H]4CC[C@H]([C@H](C)CCCC(C)C)[C@@]4(C)CC[C@@H]3[C@@]2(C)CC[C@H]1O (stereo partly specified)", "small value"],
  ["C=C(C)C[C@H]1C2CC[C@H]3[C@@H]4CC[C@H]([C@H](C)CC[C@@H](CC)C(C)C)[C@@]4(C)CC[C@@H]3[C@@]2(C)CC[C@H]1O (stereo partly specified)", "mid value"],
  ["C=CC[C@H]1C2CC[C@H]3[C@@H]4CC[C@H]([C@H](C)CCCC(C)C)[C@@]4(C)CC[C@@H]3[C@@]2(C)CC[C@H]1O (stereo partly specified)", "small value"],
  ["C/C=C/C[C@H]1C2CC[C@H]3[C@@H]4CC[C@H]([C@H](C)CCCC(C)C)[C@@]4(C)CC[C@@H]3[C@@]2(C)CC[C@H]1O (stereo partly specified)", "large value"],
  ["C=CC[C@H]1C2CC[C@H]3[C@@H]4CC[C@H]([C@H](C)CC[C@@H](CC)C(C)C)[C@@]4(C)CC[C@@H]3[C@@]2(C)CC[C@H]1O (stereo partly specified)", "mid value"],
  ["CC(C)CCC[C@@H](C)[C@H]1CC[C@H]2[C@@H]3CCC4[C@H](C/C=C/Cl)[C@H](O)CC[C@]4(C)[C@H]3CC[C@]12C (stereo partly specified)", "small value"],
  ["C=CC[C@H]1C2=CCC3C(CC[C@@]4(C)C3CC[C@@H]4[C@H](C)CCCC(C)C)[C@@]2(C)CC[C@H]1O (stereo partly specified)", "mid value"],
  ["CCC[C@H]1C2CC[C@H]3[C@@H]4CC[C@H]([C@H](C)CCCC(C)C)[C@@]4(C)CC[C@@H]3[C@@]2(C)CC[C@H]1O (stereo partly specified)", "large value"],
  ["C=C(Cl)C[C@H]1C2CC[C@H]3[C@@H]4CC[C@H]([C@H](C)CC[C@@H](CC)C(C)C)[C@@]4(C)CC[C@@H]3[C@@]2(C)CC[C@H]1O (stereo partly specified)", "mid value"],
  ["CC(C)CCC[C@@H](C)[C@H]1CC[C@H]2[C@@H]3CCC4[C@H](Cc5ccc(F)cc5)[C@H](O)CC[C@]4(C)[C@H]3CC[C@]12C (stereo partly specified)", "large value"]
]}
